- MEASUREMENT_PROTOCOL: Biodistribution study with lead-212
- Format: in vivo, mouse
- STUDY_CONDITIONS: mouse, pancreas, intravenous, 100 kBq, 4 h p.i.; n = 4; read-out: Pancreas uptake
OBSERVATION_TYPE: tissue uptake at 4 h (%ID/g)
Numbers only, in %ID/g.

Reference set, count: 2
COMPOUND	tissue uptake at 4 h, %ID/g
C[C@@H](O)[C@H](NC(=O)[C@@H]1CSSC[C@H](NC(=O)[C@@H](Cc2ccccc2)NC(=O)CN2CCC(NC(=O)CN3CCN(CC(N)=O)CCN(CC(N)=O)CCN(CC(N)=O)CC3)CC2)C(=O)N[C@@H](Cc2ccc(O)cc2)C(=O)N[C@H](Cc2c[nH]c3ccccc23)C(=O)N[C@@H](CCCCN)C(=O)N[C@@H]([C@@H](C)O)C(=O)N1)C(=O)O [[^212Pb]Pb-eSOMA-02, metal not drawn]	1.25
C[C@@H](O)[C@H](NC(=O)[C@@H]1CSSC[C@H](NC(=O)[C@@H](Cc2ccccc2)NC(=O)[C@H]2CC[C@H](CNC(=O)CN3CCN(CC(N)=O)CCN(CC(N)=O)CCN(CC(N)=O)CC3)CC2)C(=O)N[C@@H](Cc2ccc(O)cc2)C(=O)N[C@H](Cc2c[nH]c3ccccc23)C(=O)N[C@@H](CCCCN)C(=O)N[C@@H]([C@@H](C)O)C(=O)N1)C(=O)O [[^212Pb]Pb-eSOMA-01, metal not drawn]	1.72

Now look at this one.
Exercise: What does the record list as tissue uptake at 4 h for C[C@@H](O)[C@H](NC(=O)[C@@H]1CSSC[C@H](NC(=O)[C@@H](Cc2ccccc2)NC(=O)CN2CCN(CC(N)=O)CCN(CC(N)=O)CCN(CC(N)=O)CC2)C(=O)N[C@@H](Cc2ccc(O)cc2)C(=O)N[C@H](Cc2c[nH]c3ccccc23)C(=O)N[C@@H](CCCCN)C(=O)N[C@@H]([C@@H](C)O)C(=O)N1)C(=O)O [[^212Pb]Pb-DOTAM-TATE, metal not drawn, reference compound] ?
Key: 1.14

----------
Provide the recorded tissue uptake at 4 h for the entries that follow.
- MEASUREMENT_PROTOCOL: Biodistribution study with lead-212
- Assay type: in vivo, mouse
- STUDY_CONDITIONS: mouse, spleen, intravenous, 100 kBq, 4 h p.i.; n = 4; read-out: Spleen uptake
Answers are plain numbers, in %ID/g.

Reference set, count: 2
MOLECULE	tissue uptake at 4 h, %ID/g
C[C@@H](O)[C@H](NC(=O)[C@@H]1CSSC[C@H](NC(=O)[C@@H](Cc2ccccc2)NC(=O)CN2CCC(NC(=O)CN3CCN(CC(N)=O)CCN(CC(N)=O)CCN(CC(N)=O)CC3)CC2)C(=O)N[C@@H](Cc2ccc(O)cc2)C(=O)N[C@H](Cc2c[nH]c3ccccc23)C(=O)N[C@@H](CCCCN)C(=O)N[C@@H]([C@@H](C)O)C(=O)N1)C(=O)O [[^212Pb]Pb-eSOMA-02, metal not drawn]	0.39
C[C@@H](O)[C@H](NC(=O)[C@@H]1CSSC[C@H](NC(=O)[C@@H](Cc2ccccc2)NC(=O)CN2CCN(CC(N)=O)CCN(CC(N)=O)CCN(CC(N)=O)CC2)C(=O)N[C@@H](Cc2ccc(O)cc2)C(=O)N[C@H](Cc2c[nH]c3ccccc23)C(=O)N[C@@H](CCCCN)C(=O)N[C@@H]([C@@H](C)O)C(=O)N1)C(=O)O [[^212Pb]Pb-DOTAM-TATE, metal not drawn, reference compound]	0.22

Now look at this one.
Exercise: What does the record list as tissue uptake at 4 h for C[C@@H](O)[C@H](NC(=O)[C@@H]1CSSC[C@H](NC(=O)[C@@H](Cc2ccccc2)NC(=O)[C@H]2CC[C@H](CNC(=O)CN3CCN(CC(N)=O)CCN(CC(N)=O)CCN(CC(N)=O)CC3)CC2)C(=O)N[C@@H](Cc2ccc(O)cc2)C(=O)N[C@H](Cc2c[nH]c3ccccc23)C(=O)N[C@@H](CCCCN)C(=O)N[C@@H]([C@@H](C)O)C(=O)N1)C(=O)O [[^212Pb]Pb-eSOMA-01, metal not drawn] ?
Key: 0.23
